molecular target: Mitogen-activated protein kinase 7 (Homo sapiens) (UniProt Q13164); assay: Gal4-ERK5 driven luciferase induction – cell-based, HTS, primary screen (AID 1508626); details: HeLa Gal4-ERK5 transactivation, 18 h, at 5 µM, stronger effect = higher value;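 further: luciferase driven by Gal4-ERK5 fusion binding five Gal4 sites before minimal TATA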
Sequence (Q13164 whole entry, looked up, the tested form may be a part): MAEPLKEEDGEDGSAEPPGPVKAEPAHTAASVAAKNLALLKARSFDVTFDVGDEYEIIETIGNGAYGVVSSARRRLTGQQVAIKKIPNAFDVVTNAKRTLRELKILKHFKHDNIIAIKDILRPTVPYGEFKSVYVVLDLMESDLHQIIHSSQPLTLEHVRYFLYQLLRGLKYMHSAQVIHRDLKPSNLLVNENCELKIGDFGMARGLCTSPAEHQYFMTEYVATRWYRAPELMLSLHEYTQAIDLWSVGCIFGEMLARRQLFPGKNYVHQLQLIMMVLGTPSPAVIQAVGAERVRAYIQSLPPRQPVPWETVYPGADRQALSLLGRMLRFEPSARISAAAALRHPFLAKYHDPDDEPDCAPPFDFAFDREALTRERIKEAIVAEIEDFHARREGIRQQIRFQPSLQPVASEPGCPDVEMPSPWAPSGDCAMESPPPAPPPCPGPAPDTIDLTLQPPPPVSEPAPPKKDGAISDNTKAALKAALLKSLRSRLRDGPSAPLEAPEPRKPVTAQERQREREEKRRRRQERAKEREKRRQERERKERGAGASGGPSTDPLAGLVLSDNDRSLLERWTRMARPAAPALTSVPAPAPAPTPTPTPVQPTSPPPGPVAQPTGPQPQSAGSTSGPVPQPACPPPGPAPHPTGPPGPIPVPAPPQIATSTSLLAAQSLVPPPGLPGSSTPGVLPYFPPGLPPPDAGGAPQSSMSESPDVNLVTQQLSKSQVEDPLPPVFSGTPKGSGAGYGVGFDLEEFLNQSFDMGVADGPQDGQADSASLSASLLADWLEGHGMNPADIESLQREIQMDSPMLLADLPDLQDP
Active and inactive are the calls of the source.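 How the source made its calls: active means luciferase signal above three times the same-plate solvent-only control wells; inactive means the rest.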 Peptide text beside a SMILES is read from it.
METRIC_NAME: luciferase signal

Consider the reported luciferase signal for these compounds:
{"COMPOUND": "CC(=O)OC(C)C[N+](C)(C)C (centres undefined)", "ASSAY_SYSTEM": "Mitogen-activated protein kinase 7 (Homo sapiens) (UniProt Q13164)", "RESULT": "104 AU (inactive)"}
{"COMPOUND": "CN1CCC(=C2c3ccccc3CCc3sccc32)CC1", "ASSAY_SYSTEM": "Mitogen-activated protein kinase 7 (Homo sapiens) (UniProt Q13164)", "RESULT": "76 AU (inactive)"}
{"COMPOUND": "CCN(CC)CCNC(=O)c1cc(S(C)(=O)=O)ccc1OC", "ASSAY_SYSTEM": "Mitogen-activated protein kinase 7 (Homo sapiens) (UniProt Q13164)", "RESULT": "80 AU (inactive)"}

Query :: Under Mitogen-activated protein kinase 7 (Homo sapiens) (UniProt Q13164): luciferase signal value of "Cc1cc(C2CCCCC2)n(O)c(=O)c1" ?
Result :: 52 AU (inactive)

Query :: Then what about the compound "CCOC(=O)C(C)(C)Oc1ccc(Cl)cc1" ?
Result :: 44 AU (inactive)

Query :: Then what about the compound "CCN(CC)C(=O)c1cccc(C)c1" ?
Result :: 68 AU (inactive)

Query :: Then what about the compound COC(=O)[C@H](Cc1ccccc1)NC(=O)[C@@H](N)CC(=O)O (H-Asp-Phe-OMe) ?
Result :: 36 AU (inactive)

Query :: Then what about the compound "Cc1cc(=O)[nH]c(=S)[nH]1" ?
Result :: 100 AU (inactive)

Query :: Then what about the compound "O=C1c2ccccc2C(=O)C1c1ccccc1" ?
Result :: 52 AU (inactive)

* * *

Listed below: nuclear beta-catenin stimulation values for each entry.
assay: Wnt pathway potentiators raising nuclear beta-catenin – imaging, WNT3A-conditioned medium, mouse C2C12, NPC library, primary screen (AID 1117326); conditions: at 10 µM, stronger effect = higher value
Peptide text beside a SMILES is read from it.
Express the result in % but write the number alone.

Consider the reported nuclear beta-catenin stimulation for these compounds:
{"COMPOUND": "C#C[C@]1(O)CC[C@H]2[C@@H]3CCc4cc(O)ccc4[C@H]3CC[C@@]21C", "nuclear beta-catenin stimulation (%)": 1.5}
{"COMPOUND": "C[C@](N)(Cc1ccc(O)c(O)c1)C(=O)O", "nuclear beta-catenin stimulation (%)": 2.9}
{"COMPOUND": "COC(=O)[C@H](Cc1ccccc1)NC(=O)[C@@H](N)CC(=O)O (H-Asp-Phe-OMe)", "nuclear beta-catenin stimulation (%)": 4.5}
{"COMPOUND": "CCCCCN(CCCCC)C(=O)C(CCC(=O)O)NC(=O)c1ccc(Cl)c(Cl)c1 (stereo not drawn)", "nuclear beta-catenin stimulation (%)": -0.8}
{"COMPOUND": "CC(=O)O[C@]1(C(C)=O)CC[C@H]2[C@@H]3C=C(Cl)C4=CC(=O)[C@@H]5C[C@@H]5[C@]4(C)[C@H]3CC[C@@]21C", "nuclear beta-catenin stimulation (%)": 1.2}

Query :: Using the record for "O=C(O)c1ccccc1O" , report its nuclear beta-catenin stimulation.
Result :: 0.5

Query :: Then what about the compound "CC(=O)Oc1ccccc1C(=O)Nc1ncc([N+](=O)[O-])s1" ?
Result :: 13.9

Query :: Then what about the compound CCN1CCCC1CNC(=O)c1cc(S(=O)(=O)CC)c(N)cc1OC (stereo not drawn) ?
Result :: -0.8

Query :: Then what about the compound CN1CCCN=C1COC(=O)C(O)(c1ccccc1)C1CCCCC1 (stereo not drawn) ?
Result :: 3

Query :: Then what about the compound CC(NCCC(c1ccccc1)c1ccccc1)c1ccccc1 (stereo not drawn) ?
Result :: 27.6

Query :: Then what about the compound "Cc1c(Nc2ncccc2C(=O)O)cccc1C(F)(F)F" ?
Result :: 4.9

Query :: Then what about the compound "CCc1oc2ccccc2c1C(=O)c1cc(Br)c(O)c(Br)c1" ?
Result :: 5.3

Query :: Then what about the compound CC(Cc1ccccc1)(NC(=O)CN)c1ccccc1 (stereo not drawn) ?
Result :: 0.8

Query :: Then what about the compound "O=C(NCCN1CCOCC1)c1ccc(Cl)cc1" ?
Result :: 0.1

Query :: Then what about the compound "CNC[C@H](O)c1ccc(O)c(O)c1" ?
Result :: 0.3

* * *

Listed below: inhibition values for each entry.
target: 6-phosphogluconate dehydrogenase, decarboxylating (Homo sapiens) (UniProt P52209); test: inhibition of human phosphogluconate dehydrogenase – biochemical, recombinant enzyme, NADPH absorbance, primary screen (AID 1159550); conditions: recombinant 6PGD, NADPH absorbance 341 nm; at 10 µM; stronger effect = higher value
Sequence (P52209 whole entry, looked up): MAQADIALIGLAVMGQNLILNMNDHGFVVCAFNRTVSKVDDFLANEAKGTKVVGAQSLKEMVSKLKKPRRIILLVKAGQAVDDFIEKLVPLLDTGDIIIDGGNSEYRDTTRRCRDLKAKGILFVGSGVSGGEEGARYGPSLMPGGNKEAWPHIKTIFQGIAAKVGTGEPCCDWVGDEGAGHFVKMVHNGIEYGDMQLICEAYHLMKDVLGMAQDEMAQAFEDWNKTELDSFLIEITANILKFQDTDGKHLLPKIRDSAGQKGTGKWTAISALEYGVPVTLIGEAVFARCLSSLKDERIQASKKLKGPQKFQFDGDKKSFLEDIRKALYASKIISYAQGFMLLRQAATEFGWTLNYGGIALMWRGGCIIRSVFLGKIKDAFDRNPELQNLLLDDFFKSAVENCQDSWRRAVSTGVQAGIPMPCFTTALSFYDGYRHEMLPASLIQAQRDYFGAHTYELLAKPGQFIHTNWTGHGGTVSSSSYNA
Express the result in % but write the number alone.

{"COMPOUND": "CC1=CC(=O)c2ccccc2C1=O", "UOM": "%", "NUMERIC_READOUT": 12.5}

Query :: Using the record for "Cn1c([N+](=O)[O-])cnc1COC(N)=O" , report its inhibition.
Result :: -20.2

Query :: Then what about the compound "CC(=O)OC/C=C(C)/C=C/C=C(C)/C=C/C1=C(C)CCCC1(C)C" ?
Result :: -10.8

Query :: Then what about the compound "O=c1oc2c(O)c(O)cc3c(=O)oc4c(O)c(O)cc1c4c23" ?
Result :: -6.65

Query :: Then what about the compound CCCCC1C(=O)N(c2ccccc2)N(c2ccc(O)cc2)C1=O (configuration not stated) ?
Result :: -5.96

Query :: Then what about the compound "CC[C@]12CCCN3CCc4c(n(c5ccccc45)C(=O)C1)[C@@H]32" ?
Result :: -5.24

Query :: Then what about the compound "CN1CCN(C(c2ccccc2)c2ccccc2)CC1" ?
Result :: -2.54

* * *

assay: reduced SW480 viability measured with CellTiter-Glo, NPC library, primary (AID 1117343); conditions: CellTiter-Glo luminescence; at 20 µM (top of the series)
Listed below: viability decrease (inhibition) values for each entry.
Express the result in % but write the number alone.

{"COMPOUND": "Cc1nnc(SCC2=C(C(=O)O)N3C(=O)[C@@H](NC(=O)Cn4cnnn4)[C@H]3SC2)s1", "viability decrease (inhibition) / %": 4.8}

Query :: Using the record for "CCn1cc(C(=O)O)c(=O)c2cc(F)c(N3CCNCC3)nc21" , report its viability decrease (inhibition).
Result :: -275

Query :: Then what about the compound "CN(C)CC[C@@H](c1ccc(Br)cc1)c1ccccn1" ?
Result :: 30.9

Query :: Then what about the compound CC1CC(OC(=O)C(O)c2ccccc2)CC(C)(C)N1C (centres undefined) ?
Result :: 17.1

Query :: Then what about the compound "Cn1c(NCCN(CCO)CCCc2ccc([N+](=O)[O-])cc2)cc(=O)n(C)c1=O" ?
Result :: 44.3

Query :: Then what about the compound "CN(C)CCOC(=O)COc1ccc(Cl)cc1" ?
Result :: -16

Query :: Then what about the compound "Cc1ccsc1/C=C/C1=NCCCN1C" ?
Result :: 90.9

Query :: Then what about the compound "CCOc1cc(CC(=O)N[C@@H](CC(C)C)c2ccccc2N2CCCCC2)ccc1C(=O)O" ?
Result :: 68.3

Query :: Then what about the compound "COc1cc(N)c(Cl)cc1C(=O)NC1CCN(Cc2ccccc2)CC1" ?
Result :: 26.2

* * *

assay: growth inhibition, single agents and combos, HTB85, cell-based, BGB or cisplatin IC20 combos, synergistic combos for chromothripsis tumors (AID 1671453); details: HTB85 osteosarcoma cells, drug combinations, measured here: with BGB IC20, at 5 µM, stronger effect = higher value;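 further: cells exposed for 96 hours before readout; 0% = vehicle DMSO and 100% = high DMSO killing control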
Listed below: inhibition values for each entry.
Report field: quantity (unit follows the number).

{"ENTRY_SMILES": "Cc1ccnc2c1NC(=O)c1cccnc1N2C1CC1", "inhibition": "53.6%"}
{"ENTRY_SMILES": "O=c1oc2c(O)c(O)cc3c(=O)oc4c(O)c(O)cc1c4c23", "inhibition": "-11.1%"}
{"ENTRY_SMILES": "CN(C)c1ccc(C(=C2C=CC(=[N+](C)C)C=C2)c2ccc(N(C)C)cc2)cc1", "inhibition": "94%"}

Kindly consider the entry below.
Query :: Using the record for "Cc1nc2ccc(CN(C)c3ccc(C(=O)N[C@@H](CCC(=O)O)C(=O)O)s3)cc2c(=O)[nH]1" , report its inhibition.
Result :: -9.72%

* * *

assay: inhibition of endothelial tube formation, primary screen, imaging, VEGF stimulated, CD31 staining, tube area, NPC library (AID 1117340); conditions: VEGF-stimulated ADSC/ECFC co-culture, at 10 µM, stronger effect = higher value
Active and inactive are the calls of the source.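 Rule for the calls: active = compound that reduces growth-factor-driven endothelial tube area in a mixed cell culture, no cutoff stated; inactive = the rest.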
METRIC_NAME: tube area decrease

Consider the reported tube area decrease for these molecules:
{"ENTRY_SMILES": "CC(=O)O[C@]1(C(C)=O)CC[C@H]2[C@@H]3C=C(Cl)C4=CC(=O)[C@@H]5C[C@@H]5[C@]4(C)[C@H]3CC[C@@]21C", "tube area decrease": "10.1% (inactive)"}
{"ENTRY_SMILES": "Cc1c[nH]c2ccccc12", "tube area decrease": "5.5% (inactive)"}

Query :: Using the record for "CCCc1cc(C(N)=S)ccn1" , report its tube area decrease.
Result :: 1% (inactive)
